Sourced from patent US20110300138A1

molecular target: T1, human TSH receptor (full length), coated on tubes (human, UniProt P16473 22-764); assay: competition with 125I-K1-18 IgG on TSHR coated tubes; 0.03 µg/mL, diluted in assay buffer
T1 construct: TSHR coated tubes as described in WO2004/050708A2; Exact preparation on the tubes is not detailed here; also called thyroid stimulating hormone receptor
Attribute: Inhibition of binding (%)
Please respond with the number in % and leave the unit unwritten.

Solved entries (count: 3):
K1-18 Fab (Fab, V domains shown) VH: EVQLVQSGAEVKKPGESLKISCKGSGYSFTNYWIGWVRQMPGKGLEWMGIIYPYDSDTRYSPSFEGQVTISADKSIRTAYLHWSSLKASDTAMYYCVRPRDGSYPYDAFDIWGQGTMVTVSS VL: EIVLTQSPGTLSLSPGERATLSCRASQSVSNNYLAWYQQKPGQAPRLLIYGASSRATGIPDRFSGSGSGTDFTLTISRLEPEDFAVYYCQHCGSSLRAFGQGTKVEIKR :: 24.8
K1-18 IgG (antibody, V domains shown) VH: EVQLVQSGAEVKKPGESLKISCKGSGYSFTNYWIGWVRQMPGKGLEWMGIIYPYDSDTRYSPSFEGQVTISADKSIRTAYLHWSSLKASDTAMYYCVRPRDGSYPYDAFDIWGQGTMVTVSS VL: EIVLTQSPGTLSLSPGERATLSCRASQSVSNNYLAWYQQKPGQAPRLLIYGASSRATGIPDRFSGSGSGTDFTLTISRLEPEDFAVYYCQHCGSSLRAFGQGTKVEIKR :: 39.3
K1-70 IgG (antibody, V domains shown) VH: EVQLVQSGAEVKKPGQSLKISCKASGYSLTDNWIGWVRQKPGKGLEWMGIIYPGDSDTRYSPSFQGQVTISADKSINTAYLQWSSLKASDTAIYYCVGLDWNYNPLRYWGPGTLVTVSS VL: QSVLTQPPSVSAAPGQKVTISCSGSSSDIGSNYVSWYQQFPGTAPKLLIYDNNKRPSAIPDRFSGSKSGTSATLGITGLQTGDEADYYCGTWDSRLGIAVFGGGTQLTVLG :: 45.6

Could you now consider this next binder?
Lookup: # query: Inhibition of binding (%) of entry K1-70 Fab (Fab, V domains shown) VH: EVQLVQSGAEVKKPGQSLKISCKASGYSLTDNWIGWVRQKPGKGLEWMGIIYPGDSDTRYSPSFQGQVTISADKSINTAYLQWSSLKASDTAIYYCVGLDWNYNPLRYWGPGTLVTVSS VL: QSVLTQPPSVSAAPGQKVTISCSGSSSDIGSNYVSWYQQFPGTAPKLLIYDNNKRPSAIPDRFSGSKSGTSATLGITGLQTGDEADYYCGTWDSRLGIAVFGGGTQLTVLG
Found: 68.8
